Taken from patent US8735395B2.

In this section, each of the compounds is paired with its reported Ki.
Target Under Test: human cathepsin L (Homo sapiens (Human), UniProt P07711)
Sequence (P07711 114-333): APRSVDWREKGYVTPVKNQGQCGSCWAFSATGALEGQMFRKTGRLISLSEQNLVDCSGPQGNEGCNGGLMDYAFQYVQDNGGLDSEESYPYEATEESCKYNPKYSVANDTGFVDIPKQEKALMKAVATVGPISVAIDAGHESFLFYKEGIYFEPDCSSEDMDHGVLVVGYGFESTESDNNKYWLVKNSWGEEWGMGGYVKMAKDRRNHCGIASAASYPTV
Test Details: Cathepsin L Ki
Format: biochemical
Condition Summary: Test 1, class symbols

Known results for compounds:
C#C[C@@H]1CN(C(=O)[C@H](CC(C)C)NC(=O)c2ccc(-c3csc(N4CCN(C)CC4)n3)c(F)c2)[C@@H]2C(=O)CO[C@H]12 501 to 1000 nM
C#C[C@@H]1CN(C(=O)[C@H](CC(C)C)NC(=O)c2ccc(-c3csc(N4CCN(C)CC4)n3)cc2)[C@@H]2C(=O)CO[C@H]12 1000 to 5000 nM

# Ki lookup, item "C#C[C@@H]1CN(C(=O)[C@H](CC(C)C)NC(=O)c2ccc(-c3nc(N4CCN(C)CC4)sc3F)cc2)[C@@H]2C(=O)CO[C@H]12" 1000 to 5000 nM

---

Test Details: Caco-2 permeability
Condition Summary: human
Experimental Readout: Papp at 120 min, 10 µM (×10⁻⁶ cm/s)
Give the number; ×10⁻⁶ cm/s is assumed, so skip it.

# Papp at 120 min, 10 µM lookup, item C#C[C@@H]1CN(C(=O)[C@H](CC(C)C)NC(=O)c2ccc(-c3nc(N4CCN(C)CC4)sc3F)cc2)[C@@H]2C(=O)CO[C@H]12 [Example 2] 9.1
